The following proteins are shown together with reported αs1-I CN, 6 hours, 11° C. values.
Molecular target: T1, alpha-s1 casein from Bos taurus
T1 chain: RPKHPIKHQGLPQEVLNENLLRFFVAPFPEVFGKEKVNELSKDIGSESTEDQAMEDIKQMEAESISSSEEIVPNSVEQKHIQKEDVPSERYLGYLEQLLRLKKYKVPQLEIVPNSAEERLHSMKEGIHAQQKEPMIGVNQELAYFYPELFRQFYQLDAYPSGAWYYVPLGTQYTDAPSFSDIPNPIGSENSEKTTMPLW
// note: answer is a bare numeric in Volume

// worked examples, αs1-I CN, 6 hours, 11° C. included
camel chymosin variant #150 (Q288S) (protein) GKVAREPLTSYLDSQYFGKIYIGTPPQEFTVVFDTGSSDLWVPSIYCKSNVCKNHHRFDPRKSSTFRNLGKPLSIHYGTGSMEGFLGYDTVTVSNIVDPNQTVGLSTEQPGEVFTYSEFDGILGLAYPSLASEYSVPVFDNMMDRHLVARDLFSVYMDRNGQGSMLTLGAIDPSYYTGSLHWVPVTLQQYWQFTVDSVTINGVAVACVGGCQAILDTGTSVLFGPSSDILKIQMAIGATENRYGEFDVNCGNLRSMPTVVFEINGRDYPLSPSAYTSKDQGFCTSGFSGDNNSELWILGDVFIREYYSVFDRANNRVGLAKAI; 1.83e+07
camel chymosin variant #138 (F223E) (protein) GKVAREPLTSYLDSQYFGKIYIGTPPQEFTVVFDTGSSDLWVPSIYCKSNVCKNHHRFDPRKSSTFRNLGKPLSIHYGTGSMEGFLGYDTVTVSNIVDPNQTVGLSTEQPGEVFTYSEFDGILGLAYPSLASEYSVPVFDNMMDRHLVARDLFSVYMDRNGQGSMLTLGAIDPSYYTGSLHWVPVTLQQYWQFTVDSVTINGVAVACVGGCQAILDTGTSVLEGPSSDILKIQMAIGATENRYGEFDVNCGNLRSMPTVVFEINGRDYPLSPSAYTSKDQGFCTSGFQGDNNSELWILGDVFIREYYSVFDRANNRVGLAKAI; 2e+07
bovine chymosin B variant #7 (K221V) (protein) GEVASVPLTNYLDSQYFGKIYLGTPPQEFTVLFDTGSSDFWVPSIYCKSNACKNHQRFDPRKSSTFQNLGKPLSIHYGTGSMQGILGYDTVTVSNIVDIQQTVGLSTQEPGDVFTYAEFDGILGMAYPSLASEYSIPVFDNMMNRHLVAQDLFSVYMDRNGQESMLTLGAIDPSYYTGSLHWVPVTVQQYWQFTVDSVTISGVVVACEGGCQAILDTGTSVLVGPSSDILNIQQAIGATQNQYGEFDIDCDNLSYMPTVVFEINGKMYPLTPSAYTSQDQGFCTSGFQSENHSQKWILGDVFIREYYSVFDRANNLVGLAKAI; 2.28e+07

Just so you know, measured αs1-I CN, 6 hours, 11° C. for camel chymosin variant #139 (F223L) (protein) GKVAREPLTSYLDSQYFGKIYIGTPPQEFTVVFDTGSSDLWVPSIYCKSNVCKNHHRFDPRKSSTFRNLGKPLSIHYGTGSMEGFLGYDTVTVSNIVDPNQTVGLSTEQPGEVFTYSEFDGILGLAYPSLASEYSVPVFDNMMDRHLVARDLFSVYMDRNGQGSMLTLGAIDPSYYTGSLHWVPVTLQQYWQFTVDSVTINGVAVACVGGCQAILDTGTSVLLGPSSDILKIQMAIGATENRYGEFDVNCGNLRSMPTVVFEINGRDYPLSPSAYTSKDQGFCTSGFQGDNNSELWILGDVFIREYYSVFDRANNRVGLAKAI came out at 2.59e+07
